- test-details: self-splicing fitness, log relative to wild type (ln ratio); higher = more splicing; Tetrahymena group I intron in knt gene, E. coli kanamycin selection, DiMSum; sequences stand for … in CUCUCU…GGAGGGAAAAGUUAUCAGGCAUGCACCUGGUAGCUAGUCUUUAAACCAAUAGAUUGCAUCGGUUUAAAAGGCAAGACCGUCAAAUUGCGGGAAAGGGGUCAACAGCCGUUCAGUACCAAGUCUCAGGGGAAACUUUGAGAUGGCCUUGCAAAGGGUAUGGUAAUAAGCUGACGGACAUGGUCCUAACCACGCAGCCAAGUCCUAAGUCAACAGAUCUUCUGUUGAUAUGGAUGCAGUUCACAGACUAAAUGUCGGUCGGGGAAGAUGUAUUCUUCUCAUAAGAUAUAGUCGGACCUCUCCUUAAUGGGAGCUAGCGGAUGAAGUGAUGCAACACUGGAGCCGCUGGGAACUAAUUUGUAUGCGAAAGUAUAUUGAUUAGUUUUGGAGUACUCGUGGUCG;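 further: selection with 25 µg/mL kanamycin versus none on LB agar overnight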
- measurement-setup: 37 °C
Label satisfied for high-side self-splicing fitness (ln) (at or above -0.6) and not satisfied for low-side self-splicing fitness (ln) (below it).

Field: example entries. Status: answers known.
sequence_chain=UGGUAGCAAUAUUACGAGUA answer_label="not satisfied"
sequence_chain=CUGCAGCAAUAUUACGGUAU answer_label="not satisfied"
sequence_chain=AACGAGCAAUAUUACGUCUU answer_label=satisfied
sequence_chain=GCAUAGCAAUAUUACGGUCA answer_label="not satisfied"

Query string: Determine whether this sequence has self-splicing fitness (ln) no lower than -0.6: CUAGAGCAAUAUUACGCGGU
Result string: not satisfied

Query string: And what about the sequence AGAUAGCAAUAUUACGUUGA ?
Result string: not satisfied

Query string: Try this sequence too: CCCAAGCAAUAUUACGAACG
Result string: not satisfied

Query string: What about GGCGAGCAAUAUUACGGCAA ?
Result string: satisfied
